Data origin: the supplement of paper PMC7877785

# measurementProtocol: self-splicing fitness, log relative to wild type (ln ratio); higher = more splicing; Tetrahymena group I intron in knt gene, E. coli kanamycin selection, DiMSum; sequences stand for … in CUCUCU…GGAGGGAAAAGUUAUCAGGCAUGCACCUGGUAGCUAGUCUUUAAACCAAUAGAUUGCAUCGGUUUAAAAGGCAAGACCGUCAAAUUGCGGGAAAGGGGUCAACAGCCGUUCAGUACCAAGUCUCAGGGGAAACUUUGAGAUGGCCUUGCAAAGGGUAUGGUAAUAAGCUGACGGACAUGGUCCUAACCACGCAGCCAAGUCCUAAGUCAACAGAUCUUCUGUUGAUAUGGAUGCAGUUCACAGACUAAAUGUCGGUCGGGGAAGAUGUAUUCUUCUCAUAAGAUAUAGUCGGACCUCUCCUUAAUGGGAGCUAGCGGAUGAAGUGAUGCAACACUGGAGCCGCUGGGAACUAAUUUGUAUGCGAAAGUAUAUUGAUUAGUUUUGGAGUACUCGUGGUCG;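 also: selection with 25 µg/mL kanamycin versus none on LB agar overnight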
# conditionSummary: 37 °C
Please enter Met where self-splicing fitness (ln) is greater than or equal to -2, and Not met where it is lower.

{"columns": ["sequenceData", "discreteLabel"],
 "data": [
  ["CUCGAGCAAUAUUACGACCU", "Not met"],
  ["GGGCAGCAAUAUUACGCGCC", "Not met"],
  ["AGGCAGCAAUAUUACGCUAA", "Met"],
  ["GAGCAGCAAUAUUACGACAA", "Not met"],
  ["CUCGAGCAAUAUUACGGUUG", "Not met"],
  ["AUACAGCAAUAUUACGGCCG", "Met"],
  ["ACUGAGCAAUAUUACGGUGC", "Met"],
  ["UACAAGCAAUAUUACGUUGG", "Met"],
  ["CUACAGCAAUAUUACGAUGC", "Not met"],
  ["UUUGAGCAAUAUUACGAUGG", "Met"],
  ["CCCCAGCAAUAUUACGACUC", "Not met"]
]}
